# Test system: AR mRNA
# ASSAY NOTES: Dose-dependent antisense inhibition of human AR in HuVEC cells (electroporation, qRT-PCR RTS3559, IC50)
# Assay type: cell-based
# CONDITION CONTEXT: Table 34; 3000.0 nM, HuVEC, electroporation, approximately 16 hours
Oligonucleotides are written 5' to 3', each unit as a sugar letter and its base; * is a phosphorothioate linkage, no mark a phosphodiester; rarer units and linkages stand in square brackets, end groups in braces. Plain capitals give the bases only. k = constrained ethyl (cEt); [5mC] = 5-methylcytosine; d = 2'-deoxy (DNA)
ENDPOINT: percent inhibition of AR, 3000.0 nM (%)
Give just the number in %; leave the unit off.

Record excerpt, results attached:
# SUBSTANCE, ENDPOINT, UNIT STRING, ENDPOINT RESULT
measured = [
    ("584044 (k[5mC]*k[5mC]*k[5mC]*dT*dT*d[5mC]*dA*dG*d[5mC]*dG*dG*d[5mC]*dT*k[5mC]*kT*kT; antisense) [compound 584044]", "percent inhibition of AR, 3000.0 nM", "%", 78),
    ("583996 (k[5mC]*kG*k[5mC]*d[5mC]*dA*dG*dG*dG*dT*dA*d[5mC]*d[5mC]*dA*k[5mC]*kA*k[5mC]; antisense) [compound 583996]", "percent inhibition of AR, 3000.0 nM", "%", 70),
    ("583998 (k[5mC]*kA*kT*dG*d[5mC]*d[5mC]*dG*d[5mC]*d[5mC]*dA*dG*dG*dG*kT*kA*k[5mC]; antisense) [compound 583998]", "percent inhibition of AR, 3000.0 nM", "%", 70),
    ("583932 (kT*k[5mC]*kT*d[5mC]*d[5mC]*dA*dG*d[5mC]*dT*dT*dG*dA*dT*kG*k[5mC]*kG; antisense) [compound 583932]", "percent inhibition of AR, 3000.0 nM", "%", 81),
    ("583999 (kA*k[5mC]*k[5mC]*dA*dT*dG*d[5mC]*d[5mC]*dG*d[5mC]*d[5mC]*dA*dG*kG*kG*kT; antisense) [compound 583999]", "percent inhibition of AR, 3000.0 nM", "%", 64),
    ("584125 (kG*k[5mC]*k[5mC]*dA*dT*dG*dA*dG*dA*d[5mC]*dA*dG*d[5mC]*kT*kT*kT; antisense) [compound 584125]", "percent inhibition of AR, 3000.0 nM", "%", 76),
    ("583917 (kT*k[5mC]*kG*d[5mC]*dG*dA*d[5mC]*dT*d[5mC]*dT*dG*dG*dT*kA*k[5mC]*kG; antisense) [compound 583917]", "percent inhibition of AR, 3000.0 nM", "%", 70),
]

With those in mind, consider the next substance.
Using the record for 549372 (kA*kA*kG*dT*dT*dG*dT*dA*dG*dT*dA*dG*dT*k[5mC]*kG*k[5mC]) [compound 549372] , report its percent inhibition of AR, 3000.0 nM. 88
